The origin of these recorded values is PubChem BioAssay.

Experiment: binders of probe aFGF10 on microarray, primary screen, stem cell growth factor project, biochemical, small-molecule microarray, fluorescence 635/667 (AID 1071);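 note: score merges 667 nm spot intensity and signal to noise from triplicate slides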
Conditions: higher = more signal
Would you kindly list composite z-score for each of these molecules?
Answers are plain numbers.

// solved cases for composite z-score follow
Molecule: O=c1cccc(C=Cc2ccccc2)o1
composite z-score: -0.0239
//
Molecule: CCCNC(=O)[C@@]1(c2ccc([N+](=O)[O-])cc2)CC(=O)N(CC23CC4CC(CC(C4)C2)C3)[C@@H]1c1ccc(CO)cc1
composite z-score: 0.303

Respectfully, I request composite z-score for each entry included below.
1. CCOC(=O)[C@H]1C/C=C/C[C@H](C(=O)OCC)C(=O)O[C@H]2[C@@H](OC)O[C@H](CO)[C@@H](OC(=O)Nc3ccc4c(c3)OCO4)[C@@H]2OC1=O
2. COc1ccccc1CN1C(=O)c2ccccc2[C@@H](C(=O)NCCN2CCOCC2)[C@@H]1c1ccc(CO)cc1

a:
1: 0.718; 2: 0.539

Respectfully, I request composite z-score for each entry included below.
1. COCCOC(=O)N1C(=O)[C@@]2(c3cc(C#Cc4ccc(OC)cc4)ccc31)[C@H](C(=O)N1CCN(c3ncccn3)CC1)[C@H]1C(=O)O[C@H](c3ccccc3)[C@H](c3ccccc3)N1[C@@H]2c1ccc(O)cc1
2. COc1cc(CO)ccc1OC(C)=O

a:
1: 0.464; 2: 0.28

Respectfully, I request composite z-score for each entry included below.
1. COc1cc(C(O)C2C=CC3C(=O)N(c4ccccc4)C(=O)C3N2Nc2ccc(C#N)cc2)cc(OC)c1OC (stereo unspecified)
2. C=CC[C@@]1(C(=O)O)N=C(c2ccc(OCCCO)cc2)O[C@@H]1c1ccccc1N=[N+]=[N-]
3. Cc1ccc(F)cc1S(=O)(=O)N[C@@H]1CCN(Cc2ccc(-c3ccccc3)cc2)C1
4. COCCOC(=O)N1C(=O)[C@@]2(c3ccccc31)[C@H](c1ccc(O)cc1)N1[C@H](c3ccccc3)[C@H](c3ccccc3)OC(=O)[C@H]1[C@@H]2C(=O)N1CCc2cc(OC)c(OC)cc2C1
5. [N-]=[N+]=Nc1ccccc1[C@H]1OC(c2ccc(OCCCO)cc2)=N[C@@]1(CCS(=O)(=O)c1ccccc1)C(=O)O

a:
1.14
0.484
1.04
0.691
0.0993
